- experimentNotes: Cytotoxic activity of compound was evaluated against drug resistant subline KB-7d cells
- Type: functional
- setupConditions: Homo sapiens; read-out: ED50 (the source's name)
Could you mark each record yes (1) if its EC50 falls strictly under 9 µg/mL, and no (0) if it equals or exceeds it?

q: Is the reported EC50 for C=C1[C@@H](OC(=O)/C=C/c2ccccc2)CC[C@@]2(C)[C@@H](OC(C)=O)[C@H](OC(C)=O)[C@@]34[C@H](C)C(=O)C[C@@H]([C@@H](OC(C)=O)C132)C4(C)C (stereo not given in full) strictly below 9 µg/mL?
a: yes (1)

q: Is the reported EC50 for CC(=O)O[C@H]1CC[C@@]2(C)C[C@H](OC(C)=O)C3=C(C)CC(O)[C@@H]([C@@H](OC(C)=O)[C@@H]2C1)C3(C)C (stereo not given in full) strictly below 9 µg/mL?
a: no (0)

q: Is the reported EC50 for C=C1[C@@H](OC(=O)/C=C/c2ccccc2)CC[C@@]2(C)[C@@H](OC(C)=O)[C@H](OC(C)=O)C3=C(C)[C@@H](OC(C)=O)C[C@@H]([C@@H](O)[C@H]12)C3(C)C strictly below 9 µg/mL?
a: no (0)

q: Is the reported EC50 for C=C1[C@@H](OC(=O)/C=C/c2ccccc2)C[C@H](OC(C)=O)[C@@]2(CCOC(C)=O)[C@@H](OC(C)=O)[C@H](OC(C)=O)[C@]3(O)[C@@]4(C)CO[C@]3(C)C(=O)C[C@H]4[C@@H](OC(C)=O)[C@H]12 strictly below 9 µg/mL?
a: yes (1)

q: Is the reported EC50 for CC(=O)OC/C1=C\[C@H](OC(C)=O)[C@]2(C)C[C@H](OC(C)=O)C(C)=C([C@@H](OC(C)=O)/C(OC(C)=O)=C(/C)[C@@H](OC(C)=O)C[C@@H]1OC(=O)/C=C/c1ccccc1)C2(C)C strictly below 9 µg/mL?
a: no (0)

Data provenance: ChEMBL document CHEMBL1135356
